Cited source for all entries: PubChem BioAssay AID2783

experimentalSystem: Histone-lysine N-methyltransferase 2A (Homo sapiens) (UniProt Q03164)
Sequence (Q03164 whole entry, looked up): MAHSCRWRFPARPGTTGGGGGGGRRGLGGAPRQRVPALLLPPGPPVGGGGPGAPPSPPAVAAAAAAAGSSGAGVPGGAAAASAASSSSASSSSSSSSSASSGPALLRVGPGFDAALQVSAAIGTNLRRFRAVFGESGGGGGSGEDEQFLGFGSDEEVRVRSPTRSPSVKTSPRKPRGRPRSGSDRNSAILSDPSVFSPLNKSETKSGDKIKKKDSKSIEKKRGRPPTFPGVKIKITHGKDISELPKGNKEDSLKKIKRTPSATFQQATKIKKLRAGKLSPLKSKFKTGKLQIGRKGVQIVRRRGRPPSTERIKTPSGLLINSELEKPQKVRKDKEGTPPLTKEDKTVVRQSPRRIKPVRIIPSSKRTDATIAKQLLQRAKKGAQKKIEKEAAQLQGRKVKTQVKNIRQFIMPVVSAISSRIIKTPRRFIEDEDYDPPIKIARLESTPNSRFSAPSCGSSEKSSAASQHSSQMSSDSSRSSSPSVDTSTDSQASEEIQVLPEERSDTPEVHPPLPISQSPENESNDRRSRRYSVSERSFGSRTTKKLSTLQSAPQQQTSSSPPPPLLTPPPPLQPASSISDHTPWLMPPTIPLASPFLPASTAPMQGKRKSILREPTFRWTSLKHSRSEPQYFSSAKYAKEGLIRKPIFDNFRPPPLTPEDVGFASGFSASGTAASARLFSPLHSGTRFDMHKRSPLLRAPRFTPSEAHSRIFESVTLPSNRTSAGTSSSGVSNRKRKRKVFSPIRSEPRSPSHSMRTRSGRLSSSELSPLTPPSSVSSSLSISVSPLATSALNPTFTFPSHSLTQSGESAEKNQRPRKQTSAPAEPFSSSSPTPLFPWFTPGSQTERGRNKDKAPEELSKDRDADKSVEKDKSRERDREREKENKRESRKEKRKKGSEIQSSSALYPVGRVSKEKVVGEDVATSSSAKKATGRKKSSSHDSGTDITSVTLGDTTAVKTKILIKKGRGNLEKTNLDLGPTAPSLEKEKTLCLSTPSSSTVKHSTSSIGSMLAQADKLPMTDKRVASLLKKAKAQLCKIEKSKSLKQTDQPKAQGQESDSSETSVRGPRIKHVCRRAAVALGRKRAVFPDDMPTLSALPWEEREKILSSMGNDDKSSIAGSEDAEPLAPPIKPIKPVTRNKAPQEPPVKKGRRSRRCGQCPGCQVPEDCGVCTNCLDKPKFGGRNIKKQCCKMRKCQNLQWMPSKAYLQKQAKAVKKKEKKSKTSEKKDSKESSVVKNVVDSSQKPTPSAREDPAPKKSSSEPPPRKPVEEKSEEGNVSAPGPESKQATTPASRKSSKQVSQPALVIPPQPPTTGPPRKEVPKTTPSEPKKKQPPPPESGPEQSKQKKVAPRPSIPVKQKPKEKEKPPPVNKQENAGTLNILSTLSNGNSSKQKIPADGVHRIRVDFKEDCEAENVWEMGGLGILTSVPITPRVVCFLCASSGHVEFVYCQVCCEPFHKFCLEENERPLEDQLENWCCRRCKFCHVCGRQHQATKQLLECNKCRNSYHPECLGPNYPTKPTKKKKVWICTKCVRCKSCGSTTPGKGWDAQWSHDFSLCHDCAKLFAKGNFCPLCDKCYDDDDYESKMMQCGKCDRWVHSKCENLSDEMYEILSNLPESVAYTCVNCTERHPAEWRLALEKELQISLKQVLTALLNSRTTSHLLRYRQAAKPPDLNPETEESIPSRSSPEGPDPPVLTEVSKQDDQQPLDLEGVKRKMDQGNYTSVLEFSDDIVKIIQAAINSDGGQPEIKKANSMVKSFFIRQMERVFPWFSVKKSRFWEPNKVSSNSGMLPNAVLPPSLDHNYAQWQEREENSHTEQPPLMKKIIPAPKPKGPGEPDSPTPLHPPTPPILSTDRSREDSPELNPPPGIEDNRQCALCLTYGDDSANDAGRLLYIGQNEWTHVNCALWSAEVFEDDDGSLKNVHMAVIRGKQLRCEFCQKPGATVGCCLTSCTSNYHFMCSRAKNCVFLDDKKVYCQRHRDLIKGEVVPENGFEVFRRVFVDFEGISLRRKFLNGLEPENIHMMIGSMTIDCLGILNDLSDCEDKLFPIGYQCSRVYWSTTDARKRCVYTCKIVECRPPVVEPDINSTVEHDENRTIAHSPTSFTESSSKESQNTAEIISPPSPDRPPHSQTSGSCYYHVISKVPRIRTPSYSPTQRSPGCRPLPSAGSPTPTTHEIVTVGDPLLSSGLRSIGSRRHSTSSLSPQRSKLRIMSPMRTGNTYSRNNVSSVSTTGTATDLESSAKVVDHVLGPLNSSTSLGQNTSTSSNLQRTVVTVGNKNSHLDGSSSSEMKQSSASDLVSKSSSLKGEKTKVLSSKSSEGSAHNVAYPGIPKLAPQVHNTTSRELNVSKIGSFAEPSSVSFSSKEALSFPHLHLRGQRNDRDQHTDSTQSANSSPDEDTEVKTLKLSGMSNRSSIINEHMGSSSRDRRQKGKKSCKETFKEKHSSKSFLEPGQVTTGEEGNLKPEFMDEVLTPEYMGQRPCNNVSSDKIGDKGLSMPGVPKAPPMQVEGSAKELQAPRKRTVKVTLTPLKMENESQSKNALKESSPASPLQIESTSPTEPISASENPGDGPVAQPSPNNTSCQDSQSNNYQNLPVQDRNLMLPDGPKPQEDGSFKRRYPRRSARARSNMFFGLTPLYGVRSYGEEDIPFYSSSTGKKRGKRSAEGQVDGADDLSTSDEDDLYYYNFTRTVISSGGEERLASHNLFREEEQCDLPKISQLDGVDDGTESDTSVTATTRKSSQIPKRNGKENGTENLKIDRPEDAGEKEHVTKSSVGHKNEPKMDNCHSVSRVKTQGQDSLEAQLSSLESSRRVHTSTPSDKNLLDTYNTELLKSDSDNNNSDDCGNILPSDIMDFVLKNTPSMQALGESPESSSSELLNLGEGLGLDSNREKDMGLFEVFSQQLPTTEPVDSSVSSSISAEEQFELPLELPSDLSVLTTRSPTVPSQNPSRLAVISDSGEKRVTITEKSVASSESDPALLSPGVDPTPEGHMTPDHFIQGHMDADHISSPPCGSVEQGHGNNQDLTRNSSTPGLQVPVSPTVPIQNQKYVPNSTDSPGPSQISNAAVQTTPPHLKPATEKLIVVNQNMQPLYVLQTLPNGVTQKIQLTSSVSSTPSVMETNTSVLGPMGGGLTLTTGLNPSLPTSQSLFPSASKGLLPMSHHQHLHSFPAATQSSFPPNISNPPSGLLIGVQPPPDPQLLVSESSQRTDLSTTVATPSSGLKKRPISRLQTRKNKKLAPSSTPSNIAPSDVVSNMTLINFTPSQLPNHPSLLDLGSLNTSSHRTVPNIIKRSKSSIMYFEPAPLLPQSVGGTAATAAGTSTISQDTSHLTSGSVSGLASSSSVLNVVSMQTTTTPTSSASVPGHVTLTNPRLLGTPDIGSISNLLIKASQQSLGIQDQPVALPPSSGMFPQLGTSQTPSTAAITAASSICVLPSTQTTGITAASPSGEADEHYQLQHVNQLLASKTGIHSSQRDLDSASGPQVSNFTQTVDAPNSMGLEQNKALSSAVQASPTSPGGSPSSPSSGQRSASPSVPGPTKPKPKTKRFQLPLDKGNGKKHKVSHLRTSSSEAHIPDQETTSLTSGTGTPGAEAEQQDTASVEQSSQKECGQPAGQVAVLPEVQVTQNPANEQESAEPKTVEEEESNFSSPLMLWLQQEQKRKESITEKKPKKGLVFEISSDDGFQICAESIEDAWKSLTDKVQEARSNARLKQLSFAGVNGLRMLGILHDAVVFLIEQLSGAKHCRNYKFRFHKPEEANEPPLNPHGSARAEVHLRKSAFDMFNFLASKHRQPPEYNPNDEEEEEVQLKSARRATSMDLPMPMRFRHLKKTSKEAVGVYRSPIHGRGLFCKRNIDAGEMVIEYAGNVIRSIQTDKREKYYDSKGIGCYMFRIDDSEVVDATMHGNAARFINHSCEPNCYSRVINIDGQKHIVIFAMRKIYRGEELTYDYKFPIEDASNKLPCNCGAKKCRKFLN
assayRemarks: Confirmation of Inhibitors Targeting the Menin-MLL Interaction in MLL Related Leukemias: Competition With Fluorescein Labeled MLL-derived Peptide; note: potency is the fitted concentration of half-maximal effect
experimentalContext: Fluorescence polarization, fluorescein-MLL peptide displacement from menin
Records with an inconclusive call do not appear. Activity calls are given as the source filed them. Calls come from the whole dose curve; as a rule, active = well fitted inhibition curve with a large enough effect in the polarisation, with a control signal flat (not every such curve was filed as active); inconclusive = small, poorly fitted or top-dose-only effect, or effect the other way, or a change in a side signal; inactive = no such curve, though single readings can be large or run the other way; the % refers to the polarisation.
reportedMetric: Potency

Data request: Answer with Potency of "C[C@H](NC(=O)c1cc2c(cn1)[nH]c1ccccc12)C(=O)O" measured for Histone-lysine N-methyltransferase 2A (Homo sapiens) (UniProt Q03164).
Data returned: 71 µM (active)

Data request: Answer with Potency of "O=C(C[N+]12CC[N+](CC(=O)c3ccc(F)cc3)(CC1)CC2)c1ccc(F)cc1" measured for Histone-lysine N-methyltransferase 2A (Homo sapiens) (UniProt Q03164).
Data returned: 79.4 µM (active)

Data request: Answer with Potency of "CCC[n+]1c2ccccc2cc2ccccc21" measured for Histone-lysine N-methyltransferase 2A (Homo sapiens) (UniProt Q03164).
Data returned: 63.2 µM (active)

---

experimentalSystem: Histone-lysine N-methyltransferase 2A (Homo sapiens)
assayRemarks: Confirmation of Inhibitors Targeting the Menin-MLL Interaction in MLL Related Leukemias: Competition With Fluorescein Labeled MLL-derived Peptide; note: potency is the fitted concentration of half-maximal effect
experimentalContext: Fluorescence polarization, fluorescein-MLL peptide displacement from menin
Inconclusive results are not listed. Active and inactive are the calls of the source. Calls come from the whole dose curve; as a rule, active = well fitted inhibition curve with a large enough effect in the polarisation, with a control signal flat (not every such curve was filed as active); inconclusive = small, poorly fitted or top-dose-only effect, or effect the other way, or a change in a side signal; inactive = no such curve, though single readings can be large or run the other way; the % refers to the polarisation. Where a SMILES comes first, the peptide text is derived from it. Bridges are numbered along the chain shown (N, C = ends). [ ]: non-standard residue; d: D form. The star is where a group is joined. ξ: configuration not given here. Octanoyl(6-Me) = CCC(C)CCCCC(=O)*; ξThr(3R) = C[C@@H](O)C(N)C(=O)O; dDab = NCC[C@@H](N)C(=O)O; Dab = NCC[CH](N)C(=O)O
Record form. Attribute: Potency. Fill in for each entry.

Data request: Answer with Potency of CCC(C)CCCCC(=O)N[C@@H](CCN)C(=O)N[C@H](C(=O)N[C@@H](CCN)C(=O)N[C@H]1CCNC(=O)C([C@@H](C)O)NC(=O)[C@@H](CCN)NC(=O)[C@H](CCN)NC(=O)[C@H](CC(C)C)NC(=O)[C@@H](CC(C)C)NC(=O)[C@H](CCN)NC1=O)[C@@H](C)O (stereo partly drawn) ({Octanoyl(6-Me)}-[Dab]T[Dab][Dab][Dab][dL]L[Dab][dDab][ξThr(3R)]; lactam 4-C) measured for Histone-lysine N-methyltransferase 2A (Homo sapiens).
Data returned: 12.6 µM (active)

Data request: Answer with Potency of CC(=O)NC1C(=O)N(CCN2CCOCC2)c2ccc(C)cc21 (stereo not given) measured for Histone-lysine N-methyltransferase 2A (Homo sapiens).
Data returned: 79.6 µM (active)

Data request: Answer with Potency of "CCOc1cc(CNCCc2ccc(S(N)(=O)=O)cc2)ccc1OCc1ccccc1" measured for Histone-lysine N-methyltransferase 2A (Homo sapiens).
Data returned: 126 µM (active)

Data request: Answer with Potency of "N=C1c2ccccc2CN1c1ccc(N2CCOCC2)c(S(=O)(=O)Nc2ccc(Cl)cc2)c1" measured for Histone-lysine N-methyltransferase 2A (Homo sapiens).
Data returned: 71 µM (active)

Data request: Answer with Potency of CCC(C)CCCCC(=O)NC(CCN)C(=O)NC(C(=O)NC(CCN)C(=O)NC1CCNC(=O)C(C(C)O)NC(=O)C(CCN)NC(=O)C(CCN)NC(=O)C(CC(C)C)NC(=O)C(Cc2ccccc2)NC(=O)C(CCN)NC1=O)C(C)O (stereo not given) ({Octanoyl(6-Me)}-[Dab]T[Dab][Dab][Dab]FL[Dab][Dab]T; lactam 4-C; configuration not given here) measured for Histone-lysine N-methyltransferase 2A (Homo sapiens).
Data returned: 10 µM (active)

Data request: Answer with Potency of "Cc1cc2c(N)cccc2nn1" measured for Histone-lysine N-methyltransferase 2A (Homo sapiens).
Data returned: 141 µM (active)

Data request: Answer with Potency of "Cc1sc2ncnc(NC3CCN(Cc4ccccc4)CC3)c2c1C" measured for Histone-lysine N-methyltransferase 2A (Homo sapiens).
Data returned: 63.1 µM (active)

Data request: Answer with Potency of "CCCC[n+]1c2ccccc2cc2ccccc21" measured for Histone-lysine N-methyltransferase 2A (Homo sapiens).
Data returned: 63.2 µM (active)

Data request: Answer with Potency of CCCC(c1nnnn1Cc1ccco1)N1CCN(C2CCCC2)CC1 (stereo not given) measured for Histone-lysine N-methyltransferase 2A (Homo sapiens).
Data returned: 126 µM (active)

Data request: Answer with Potency of "NC(=O)[C@@H]1CCCNc2c(I)cc([N+](=O)[O-])cc2C(=O)N[C@@H](CCCN=C(N)N)C(=O)N[C@@H](CCCN=C(N)N)C(=O)N1" measured for Histone-lysine N-methyltransferase 2A (Homo sapiens).
Data returned: 251 µM (active)

Data request: Answer with Potency of "c1cc(CN2CCCNCCNCCCNCC2)ccc1CN1CCCNCCNCCCNCC1" measured for Histone-lysine N-methyltransferase 2A (Homo sapiens).
Data returned: 31.6 µM (active)

Data request: Answer with Potency of "NC(=NCCCCCCN=C(N)/N=C(\N)Nc1ccc(Cl)cc1)/N=C(\N)Nc1ccc(Cl)cc1" measured for Histone-lysine N-methyltransferase 2A (Homo sapiens).
Data returned: 141 µM (active)

Data request: Answer with Potency of "COc1ccccc1NS(=O)(=O)c1cc(N2Cc3ccccc3C2=N)ccc1N1CCOCC1" measured for Histone-lysine N-methyltransferase 2A (Homo sapiens).
Data returned: 71 µM (active)

Data request: Answer with Potency of "CNC[C@H](CC1CCCCC1)NC[C@H](Cc1ccccc1)NCCC12CC3CC(CC(C3)C1)C2" measured for Histone-lysine N-methyltransferase 2A (Homo sapiens).
Data returned: 79.4 µM (active)

Data request: Answer with Potency of "CCc1cc2c(N3CCN(C(=O)c4ccco4)CC3)ncnc2s1" measured for Histone-lysine N-methyltransferase 2A (Homo sapiens).
Data returned: 63.1 µM (active)
